Target: HCV polymerase (NS5B) type 1a (Hepatitis C virus genotype 1a, UniProt P26664)
Construct: made in house; host or cells: Escherichia coli (by the 'similar method' of the 1b enzyme)
Experiment: Assay of enzyme (HCV polymerase) inhibitory activity, type 1a enzyme
Type: biochemical, HCV type 1a (cloned from the blood of patients)
Conditions: HCV polymerase inhibitory activity (IC50), 1a, type 1a enzyme 1.5 μg/ml, 25° C., 60 min
pIC50: −log10 of the molar value.
REPORTED_PROPERTY: pIC50

>>> print(df.to_string())
                                   molecule    test_value
0  O=C(NCc1ccc(OC(F)(F)F)cc1)[C@H]1CN(c2cnc3cncnc3n2)CCN1S(=O)(=O)c1ccc(OC(F)(F)F)cc1        > 7.00
1  CC(C)c1ccc(CNC(=O)[C@H]2CN(C(=O)CCC(=O)O)CCN2S(=O)(=O)c2ccc(C(F)(F)F)cc2)cc1        < 6.00
2  CC(C)c1ccc(CNC(=O)[C@H]2CN(C(=O)Nc3cccnc3)CCN2S(=O)(=O)c2ccc(C(F)(F)F)cc2)cc1  6.00 to 7.00
3  CC(C)c1ccc(S(=O)(=O)N2CCN(c3nc4c(s3)Cc3ccccc3-4)CC2C(=O)NCc2ccc(C(F)(F)F)cc2)cc1 (stereo not drawn)        < 6.00
4  CCC(F)(F)c1ccc(CNC(=O)[C@H]2CN(C(=O)Nc3ccnc(C(=O)OC(C)(C)C)c3)CCN2S(=O)(=O)c2ccc(OC(F)(F)F)cc2)cc1        > 7.00
5  CCC(F)(F)c1ccc(CNC(=O)[C@H]2CN(C(=O)Cn3nnc(CC(=O)N4CCOCC4)n3)CCN2S(=O)(=O)c2ccc(OC(F)(F)F)cc2)cc1        > 7.00

* * *

Each entry below lists one item and its recorded IC50 value.
Target: HCV polymerase (NS5B) type 1b (Hepatitis C virus genotype 1b, UniProt P26663)
Construct: a region encoding NS5B (J Virol 1991 March, 65(3), 1105-13, 544 amino acids after deletion of 47 amino acids on the C-terminal); 6xHis (C); made in house; host or cells: Escherichia coli
Experiment: Assay of enzyme (HCV polymerase) inhibitory activity, type 1b enzyme
Format: biochemical, HCV BK strain (type 1b)
Settings: HCV polymerase inhibitory activity (IC50), 1b, type 1b enzyme 0.5 μg/ml, 25° C., 60 min
Experimental: The evaluation of the HCV polymerase inhibitory activity of the compound of the present invention is explained in the following. This polymerase is an enzyme coded for by the non-structural protein region called NS5B on the genome RNA of HCV. i) Preparation of Enzyme (HCV Polymerase) […] The HCV polymerase inhibitory activity (IC50) of the compound of the present invention was calculated from the values of radioactivity of the enzyme reaction with and without the test substance. […]
REPORTED_PROPERTY: IC50

>>> print(df.to_string())
                                    molecule      test_value
 0  COCC(=O)N1CCN(S(=O)(=O)c2ccc(C(F)(F)F)cc2)[C@@H](C(=O)NCc2ccc(C(C)C)cc2)C1 [Example 279]  100 to 1000 nM
 1  CCCc1ccc(CNC(=O)[C@H]2CN(C(=O)N(C)c3ccncc3)CCN2S(=O)(=O)c2ccc(OC(F)(F)F)cc2)cc1 [Example 463]       > 1000 nM
 2  COc1cccc(CNC(=O)[C@H]2CN(C(C)=O)CCN2S(=O)(=O)c2ccc(OC(F)(F)F)cc2)c1 [Example 636]       > 1000 nM
 3  CCC(F)(F)c1ccc(CNC(=O)[C@H]2CN(c3cnc(C#N)cn3)CCN2S(=O)(=O)c2ccc(OC(F)(F)F)cc2)cc1 [Example 591]        < 100 nM
 4  CC(=O)N1CCN(S(=O)(=O)c2ccc(C(C)C)cc2)[C@@H](C(=O)NCCc2ccccn2)C1 [Example 396]       > 1000 nM
 5  CC(C)(C)c1ccc(CNC(=O)[C@H]2CN(c3cnc(CN4CCOCC4)cn3)CCN2S(=O)(=O)c2ccc(OC(F)(F)F)cc2)cc1 [Example 593]        < 100 nM
 6  CC(=O)N1CCN(S(=O)(=O)c2ccc(OC(F)(F)F)cc2)[C@@H](C(=O)NCc2ccccc2-c2ccccc2)C1 [Example 642]       > 1000 nM
 7  Cc1cc(N2CCN(S(=O)(=O)c3ccc(OC(F)(F)F)cc3)[C@@H](C(=O)NCc3ccc(C(C)C)cc3)C2)n[nH]1 [Example 523]  100 to 1000 nM
 8  CCC(F)(F)c1ccc(CNC(=O)[C@H]2CN(C(=O)Cn3nnnc3C(C)C)CCN2S(=O)(=O)c2ccc(OC(F)(F)F)cc2)cc1 [Example 541]  100 to 1000 nM
 9  CCC(F)(F)c1ccc(CNC(=O)[C@H]2CN(C(=O)Cn3nnc(CC(=O)N4CCOCC4)n3)CCN2S(=O)(=O)c2ccc(OC(F)(F)F)cc2)cc1 [Example 543]        < 100 nM
10  CCCc1ccc(S(=O)(=O)N2CCN(c3nc(C)c(C(N)=O)s3)C[C@@H]2C(=O)NCc2ccc(C(C)C)cc2)cc1 [Example 333]        < 100 nM
11  COC(=O)CN1CCN(S(=O)(=O)c2ccc(I)cc2)C(C(=O)NCc2ccc(N(C)C)cc2)C1 (stereo not drawn) [Example 94]       > 1000 nM
12  CN(C)c1ccc(CNC(=O)C2CN(C(=O)CN3CCOCC3)CCN2S(=O)(=O)c2ccc(I)cc2)cc1 (stereo not drawn) [Example 104]       > 1000 nM
13  CC(=O)N1CCN(S(=O)(=O)c2ccc(C(C)C)cc2)[C@@H](C(=O)NCc2ccc(CO)cc2)C1 [Example 226]       > 1000 nM
14  CC(C)c1ccc(CNC(=O)[C@H]2CN(c3ncc(C(=O)O)s3)CCN2S(=O)(=O)c2ccc(C(F)(F)F)cc2)cc1 [Example 315]        < 100 nM
15  CC(=O)N1CCN(S(=O)(=O)c2ccc(C(C)C)cc2)C(C(=O)NCc2ccc(N(C)CCO)cc2)C1 (stereo not drawn) [Example 181]       > 1000 nM
16  CC(=O)N1CCN(S(=O)(=O)c2ccc(C(C)C)cc2)[C@@H](C(=O)NCCCN2CCCC2)C1 [Example 405]       > 1000 nM
17  CCC(F)(F)c1ccc(CNC(=O)[C@H]2CN(c3cnc(CN(C)C)cn3)CCN2S(=O)(=O)c2ccc(OC(F)(F)F)cc2)cc1 [Example 595]        < 100 nM
18  COC(=O)c1ncc(N2CCN(S(=O)(=O)c3ccc(C(F)(F)F)cc3)[C@@H](C(=O)NCc3ccc(C(C)C)cc3)C2)nc1N [Example 423]        < 100 nM
19  CC(=O)N1CCN(S(=O)(=O)c2ccc(I)cc2)C(C(=O)NCc2ccc(C(F)(F)F)cc2)C1 (stereo not drawn) [Example 61]       > 1000 nM
20  CN(C)c1ccc(CNC(=O)C2CN(C(=O)Cc3cccnc3)CCN2S(=O)(=O)c2ccc(I)cc2)cc1 (stereo not drawn) [Example 154]  100 to 1000 nM
21  CC(=O)N1CCN(S(=O)(=O)c2ccc(OCC(=O)O)cc2)[C@@H](C(=O)NCc2ccc(C(C)C)cc2)C1 [Example 249]       > 1000 nM
22  CC(C)c1ccc(CNC(=O)[C@H]2CN(C(=O)Nc3ccncc3)CCN2S(=O)(=O)c2ccc(C(F)(F)F)cc2)cc1 [Example 347]  100 to 1000 nM
23  COc1cccc(NC(=O)N2CCN(S(=O)(=O)c3ccc(C(F)(F)F)cc3)[C@@H](C(=O)NCc3ccc(C(C)C)cc3)C2)c1 [Example 273]  100 to 1000 nM
24  CCC(F)(F)c1ccc(CNC(=O)[C@H]2CN(c3cc(N)ncn3)CCN2S(=O)(=O)c2ccc(OC(F)(F)F)cc2)cc1 [Example 605]        < 100 nM
25  CC(C)c1ccc(CNC(=O)[C@H]2CN(c3cc(C(=O)O)[nH]n3)CCN2S(=O)(=O)c2ccc(C(F)(F)F)cc2)cc1 [Example 426]  100 to 1000 nM
26  CCC(F)(F)c1ccc(CNC(=O)[C@H]2CN(C(=O)Cn3nnc(C(C)C)n3)CCN2S(=O)(=O)c2ccc(OC(F)(F)F)cc2)cc1 [Example 542]        < 100 nM

* * *

Molecular target: HCV polymerase (NS5B) type 1a (Hepatitis C virus genotype 1a)
Construct: made in house; host or cells: Escherichia coli (by the 'similar method' of the 1b enzyme)
Assay: Assay of enzyme (HCV polymerase) inhibitory activity, type 1a enzyme
Format: biochemical, HCV type 1a (cloned from the blood of patients)
Conditions: HCV polymerase inhibitory activity (IC50), 1a, type 1a enzyme 1.5 μg/ml, 25° C., 60 min
pIC50: −log10 of the molar value. Structures can show the parent of a compound that is named as a salt.
REPORTED_PROPERTY: pIC50

In [3]: df
Out[3]:
                                    compound    test_value
 0  CCCc1ccc(S(=O)(=O)N2CCN(C(=O)Nc3cccc(OCC(=O)O)c3)C[C@@H]2C(=O)NCc2ccc(C(C)C)cc2)cc1  6.00 to 7.00
 1  CC(=O)N1CCN(S(=O)(=O)c2ccc(I)cc2)C(C(=O)NCc2ccc(N(C)C)cc2)C1 (stereo not drawn)  6.00 to 7.00
 2  Cc1nc(N2CCN(S(=O)(=O)c3ccc(OC(F)(F)F)cc3)[C@@H](C(=O)NCc3ccc(C(C)C)cc3)C2)sc1C(N)=O        > 7.00
 3  COC(=O)c1cnc(N2CCN(S(=O)(=O)c3ccc(C(F)(F)F)cc3)[C@@H](C(=O)NCc3ccc(C(C)C)cc3)C2)c(C)n1  6.00 to 7.00
 4  CC(=O)N1CCN(S(=O)(=O)c2ccc(C(C)C)cc2)C(C(=O)NCc2cccc(OC(F)(F)F)c2)C1 (stereo not drawn)        < 6.00
 5  CC(C)c1ccc(CNC(=O)[C@H]2CN(C(=O)CCCC(=O)O)CCN2S(=O)(=O)c2ccc(C(F)(F)F)cc2)cc1        < 6.00
 6  CCCc1ccc(CNC(=O)[C@H]2CN(c3ccc(C(=O)O)cc3)CCN2S(=O)(=O)c2ccc(OC(F)(F)F)cc2)cc1  6.00 to 7.00
 7  CC(=O)N1CCN(S(=O)(=O)c2ccc(CC3CC3)cc2)[C@@H](C(=O)NCc2ccc(C(C)C)cc2)C1        > 7.00
 8  CC(C)c1ccc(CNC(=O)[C@H]2CN(c3ncc(C(=O)O)cn3)CCN2S(=O)(=O)c2ccc(C(F)(F)F)cc2)cc1        < 6.00
 9  CC(C)c1ccc(CNC(=O)[C@H]2CN(C(=O)CCNC(=O)OC(C)(C)C)CCN2S(=O)(=O)c2ccc(C(F)(F)F)cc2)cc1        < 6.00
10  CCCc1ccc(CNC(=O)[C@H]2CN(c3cnc(C(=O)OC)c(N)n3)CCN2S(=O)(=O)c2ccc(OC(F)(F)F)cc2)cc1        > 7.00
11  CCC(F)(F)c1ccc(CNC(=O)[C@H]2CN(C(=O)Nc3nnc(C(=O)N4CCC(O)CC4)s3)CCN2S(=O)(=O)c2ccc(OC(F)(F)F)cc2)cc1        < 6.00
12  CC(C)c1ccc(CNC(=O)[C@H]2CN(C(=O)Nc3cccc(OCC(=O)O)c3)CCN2S(=O)(=O)c2ccc(C(F)(F)F)cc2)cc1  6.00 to 7.00
13  CC(C)c1ccc(S(=O)(=O)N2CCN(C(=O)COc3ccccc3)CC2C(=O)NCc2ccc(C(F)(F)F)cc2)cc1 (stereo not drawn)        < 6.00
14  COC(=O)N1CCN(S(=O)(=O)c2ccc(C(C)C)cc2)C(C(=O)NCc2ccc(C(F)(F)F)cc2)C1 (stereo not drawn)        < 6.00
15  O=C(NCc1ccc(OC(F)(F)F)cc1)[C@H]1CN(C(=O)Cc2ccncc2)CCN1S(=O)(=O)c1ccc(OC(F)(F)F)cc1  6.00 to 7.00
16  CN(C)c1ccc(CNC(=O)[C@H]2CN(C(=O)CN3CCCCC3)CCN2S(=O)(=O)c2ccc(I)cc2)cc1        < 6.00
17  CC(=O)N1CCN(S(=O)(=O)c2ccc(Cl)c(Cl)c2)C(C(=O)NCc2ccc(C(F)(F)F)cc2)C1 (stereo not drawn)        < 6.00
18  CC(=O)N1CCN(S(=O)(=O)c2ccc(C(C)C)cc2)[C@@H](C(=O)NCCc2ccccn2)C1        < 6.00
19  COC(=O)CCCCC(=O)N1CCN(S(=O)(=O)c2ccc(C(F)(F)F)cc2)[C@@H](C(=O)NCc2ccc(C(C)C)cc2)C1  6.00 to 7.00
20  CC(=O)N1CCN(S(=O)(=O)C2CCCCC2)C(C(=O)NCc2ccc(C(F)(F)F)cc2)C1 (stereo not drawn)        < 6.00
21  CC(C)c1ccc(CNC(=O)[C@H]2CN(C(=O)CNCCC(=O)O)CCN2S(=O)(=O)c2ccc(C(F)(F)F)cc2)cc1 [Example 391, hydrochloride]  6.00 to 7.00
22  CCc1ccc(CNC(=O)[C@H]2CN(C(C)=O)CCN2S(=O)(=O)c2ccc(C(C)C)cc2)cc1  6.00 to 7.00
23  O=C(NCc1ccc(C2CC2)cc1)[C@H]1CN(C(=O)Cc2ccncc2)CCN1S(=O)(=O)c1ccc(OC(F)(F)F)cc1        > 7.00
24  CC(C)c1ccc(S(=O)(=O)N2CCN(c3nc(C(=O)O)cs3)CC2C(=O)NCc2ccc(C(F)(F)F)cc2)cc1 (stereo not drawn)        < 6.00
25  CC(=O)N1CCN(S(=O)(=O)c2ccc(C(C)C)cc2)[C@H](C(=O)NCc2ccc(C(F)(F)F)cc2)C1        < 6.00
26  CCCc1ccc(S(=O)(=O)N2CCN(C(C)=O)C[C@@H]2C(=O)NCc2ccc(C(C)C)cc2)cc1        > 7.00
